Source listed as PubChem BioAssay (NCI).

Recorded growth, one value per entry.
Tested on: UACC-62 melanoma
assayProcedure: NCI-60 one-dose screen, 48 h (100 = growth as untreated, 0 = no growth, -100 = all killed)
experimentalConditions: 10 µM unless noted
About 83,000 compounds went through this panel and 20% of them were active in at least one assay; those are over-represented in the sample as a whole.
Give the number; % is assumed, so skip it.

>>> measuredvalue("Cc1cc(=O)oc2cc(Oc3nc(-c4cccs4)cn4c(-c5cccs5)cnc34)ccc12")
71.1

Entry "CCOC(=O)c1c2c(n3ccc(NC(=O)CCN4CCCCC4)cc13)C(=O)c1ncccc1C2=O" has what growth? -50.6

###

Tested on: HCT-116 colon
assayProcedure: NCI-60 one-dose screen, 48 h
experimentalConditions: 10 µM unless noted
Compounds without any hit were thinned out: in the full panel of roughly 83,000, 20% have a hit. Calls of active or inactive are those of the source. How the source made its calls: active means growth percent below 10; inactive means the rest.
Please reply with one of these outcomes: active, inactive

>>> assignedclass("NCc1cn2cc(Cl)sc2n1")
"inactive"
>>> assignedclass("COc1nc2c(cc1S(=O)(=O)c1ccccc1)CCc1c-2cnn1-c1ccc(Cl)cc1")
"inactive"
>>> assignedclass("Cc1sc2nc3[nH]/c(=C\\c4ccc(Cl)cc4)c(=O)n3c(=O)c2c1C")
"inactive"
>>> assignedclass("CCN(CC)CCCC(C)N/C(=C1\\C(=O)NC(=O)\\C1=C(/NC(C)CCCN(CC)CC)c1cccc(OC)c1)c1cccc(OC)c1 (stereo not given)")
"active"

Please let me know the test result on file for "CCN(CC)CCCNc1cc(OC)cc2nc3cc(Cl)ccc3nc12" . active

###

System: SR leukemia
assayProcedure: NCI-60 one-dose screen, 48 h
experimentalConditions: 10 µM unless noted
About 83,000 compounds went through this panel and 20% of them were active in at least one assay; those are over-represented in the sample as a whole. Calls of active or inactive are those of the source. Rule for the calls: active = growth percent below 10; inactive = the rest.
Please reply with one of these outcomes: active, inactive

Observe how each entry below is paired with its result.
>>> assignedclass("COc1ccc(C(=O)c2sc3nc4c(cc3c2N)CCCC4)cc1OC")
"active"
>>> assignedclass("COc1ccc2nc(NC(=O)c3cccnc3Nc3cc(OC)c(OC)c(OC)c3)sc2c1")
"active"

Please let me know the test result on file for "Nc1c(C(=O)Nc2ccccc2Cl)sc2nc3c(cc12)CCCCCC3" . inactive

Please let me know the test result on file for "COc1ccc2nc3cc(Cl)ccc3c(N3CCN(c4nccc(Nc5ccc(Cl)cc5)n4)CC3)c2c1" . inactive

Please let me know the test result on file for CN1CCCCC1CCN1c2ccccc2Sc2ccc(Cl)cc21 (configuration not stated) . active

Please let me know the test result on file for "O=C1CCc2c(sc3[nH]c(=S)n(Cc4ccccc4)c(=O)c23)C1" . inactive

Please let me know the test result on file for "CCCN(CCC)CN(CCC)CCC" . inactive

Please let me know the test result on file for "CNC(=O)c1cc(Oc2ccc3nc(NC(=O)Nc4ccc(N5CCC(N(C)C)CC5)cc4)sc3c2)ccn1" . active

###

System: HCT-116 colon
assayProcedure: NCI-60 one-dose screen, 48 h (100 = growth as untreated, 0 = no growth, -100 = all killed)
experimentalConditions: 10 µM unless noted
Compounds without any hit were thinned out: in the full panel of roughly 83,000, 20% have a hit.
Use 30% as the dividing line for growth, with the line itself on the rule met side and lower values as rule not met.

Observe how each entry below is paired with its result.
>>> assignedclass("CS(=O)(CCCCN=C=S)=NC(=O)c1c(F)c(F)c(F)c(F)c1F (stereo unspecified)")
"rule met"
>>> assignedclass("C[C@H](CCC(=O)O)[C@H]1CC[C@H]2[C@@H]3CC[C@@H]4/C(=C\\c5ccco5)C(=O)/C(=C\\c5ccco5)C[C@]4(C)[C@H]3CC[C@]12C")
"rule not met"
>>> assignedclass("CN1CCCCC1CCN1c2ccccc2Sc2ccc(Br)cc21 (stereo unspecified)")
"rule not met"
>>> assignedclass("CN(C)c1ccc(C2Nc3ccccc3-n3cccc32)cc1 (stereo unspecified)")
"rule met"
>>> assignedclass("O=C(CNC1C2CC3CC(C2)CC1C3)Sc1nnc2sc3ccccc3n12 (stereo unspecified)")
"rule met"

Read the next record carefully.
Assess whether reported growth for "COc1ccc(-c2csc(NC(=O)CN3CCN(c4cc5c(cc4F)c(=O)c(C(=O)O)cn5C4CC4)CC3)n2)cc1" sits at 30% or higher. rule not met
